// data source = paper PMC8494293

target-system: ParB(E111Q) (Bacillus subtilis, UniProt P26497, E111Q)
Construct: full-length, untagged
Sequence (P26497 whole entry E111Q): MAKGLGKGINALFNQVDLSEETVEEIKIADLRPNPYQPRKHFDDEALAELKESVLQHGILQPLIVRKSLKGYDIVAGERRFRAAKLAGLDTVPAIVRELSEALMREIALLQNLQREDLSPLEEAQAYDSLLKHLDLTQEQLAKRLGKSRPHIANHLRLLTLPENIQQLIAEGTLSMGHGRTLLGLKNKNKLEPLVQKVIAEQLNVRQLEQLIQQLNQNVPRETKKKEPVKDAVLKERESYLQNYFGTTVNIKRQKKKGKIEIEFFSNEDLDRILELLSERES
measurement-description: ITC; also N-gate cross-linking and BLI DNA loading; no appreciable hydrolysis
measured-attribute: Kd

q: Param item = Nc1ccn([C@@H]2O[C@H](COP(=O)(O)OP(=O)(O)OP(=O)(O)O)[C@@H](O)[C@H]2O)c(=O)n1 [CTP] ; retrieve measured Kd.
a: 5 to 8 µM
